Origin of values: patent US20120245137A1

# reported IC50; entries follow
- targetSystem: T-type calcium channel (Homo sapiens, UniProt O95180)
- Sequence (O95180 whole entry): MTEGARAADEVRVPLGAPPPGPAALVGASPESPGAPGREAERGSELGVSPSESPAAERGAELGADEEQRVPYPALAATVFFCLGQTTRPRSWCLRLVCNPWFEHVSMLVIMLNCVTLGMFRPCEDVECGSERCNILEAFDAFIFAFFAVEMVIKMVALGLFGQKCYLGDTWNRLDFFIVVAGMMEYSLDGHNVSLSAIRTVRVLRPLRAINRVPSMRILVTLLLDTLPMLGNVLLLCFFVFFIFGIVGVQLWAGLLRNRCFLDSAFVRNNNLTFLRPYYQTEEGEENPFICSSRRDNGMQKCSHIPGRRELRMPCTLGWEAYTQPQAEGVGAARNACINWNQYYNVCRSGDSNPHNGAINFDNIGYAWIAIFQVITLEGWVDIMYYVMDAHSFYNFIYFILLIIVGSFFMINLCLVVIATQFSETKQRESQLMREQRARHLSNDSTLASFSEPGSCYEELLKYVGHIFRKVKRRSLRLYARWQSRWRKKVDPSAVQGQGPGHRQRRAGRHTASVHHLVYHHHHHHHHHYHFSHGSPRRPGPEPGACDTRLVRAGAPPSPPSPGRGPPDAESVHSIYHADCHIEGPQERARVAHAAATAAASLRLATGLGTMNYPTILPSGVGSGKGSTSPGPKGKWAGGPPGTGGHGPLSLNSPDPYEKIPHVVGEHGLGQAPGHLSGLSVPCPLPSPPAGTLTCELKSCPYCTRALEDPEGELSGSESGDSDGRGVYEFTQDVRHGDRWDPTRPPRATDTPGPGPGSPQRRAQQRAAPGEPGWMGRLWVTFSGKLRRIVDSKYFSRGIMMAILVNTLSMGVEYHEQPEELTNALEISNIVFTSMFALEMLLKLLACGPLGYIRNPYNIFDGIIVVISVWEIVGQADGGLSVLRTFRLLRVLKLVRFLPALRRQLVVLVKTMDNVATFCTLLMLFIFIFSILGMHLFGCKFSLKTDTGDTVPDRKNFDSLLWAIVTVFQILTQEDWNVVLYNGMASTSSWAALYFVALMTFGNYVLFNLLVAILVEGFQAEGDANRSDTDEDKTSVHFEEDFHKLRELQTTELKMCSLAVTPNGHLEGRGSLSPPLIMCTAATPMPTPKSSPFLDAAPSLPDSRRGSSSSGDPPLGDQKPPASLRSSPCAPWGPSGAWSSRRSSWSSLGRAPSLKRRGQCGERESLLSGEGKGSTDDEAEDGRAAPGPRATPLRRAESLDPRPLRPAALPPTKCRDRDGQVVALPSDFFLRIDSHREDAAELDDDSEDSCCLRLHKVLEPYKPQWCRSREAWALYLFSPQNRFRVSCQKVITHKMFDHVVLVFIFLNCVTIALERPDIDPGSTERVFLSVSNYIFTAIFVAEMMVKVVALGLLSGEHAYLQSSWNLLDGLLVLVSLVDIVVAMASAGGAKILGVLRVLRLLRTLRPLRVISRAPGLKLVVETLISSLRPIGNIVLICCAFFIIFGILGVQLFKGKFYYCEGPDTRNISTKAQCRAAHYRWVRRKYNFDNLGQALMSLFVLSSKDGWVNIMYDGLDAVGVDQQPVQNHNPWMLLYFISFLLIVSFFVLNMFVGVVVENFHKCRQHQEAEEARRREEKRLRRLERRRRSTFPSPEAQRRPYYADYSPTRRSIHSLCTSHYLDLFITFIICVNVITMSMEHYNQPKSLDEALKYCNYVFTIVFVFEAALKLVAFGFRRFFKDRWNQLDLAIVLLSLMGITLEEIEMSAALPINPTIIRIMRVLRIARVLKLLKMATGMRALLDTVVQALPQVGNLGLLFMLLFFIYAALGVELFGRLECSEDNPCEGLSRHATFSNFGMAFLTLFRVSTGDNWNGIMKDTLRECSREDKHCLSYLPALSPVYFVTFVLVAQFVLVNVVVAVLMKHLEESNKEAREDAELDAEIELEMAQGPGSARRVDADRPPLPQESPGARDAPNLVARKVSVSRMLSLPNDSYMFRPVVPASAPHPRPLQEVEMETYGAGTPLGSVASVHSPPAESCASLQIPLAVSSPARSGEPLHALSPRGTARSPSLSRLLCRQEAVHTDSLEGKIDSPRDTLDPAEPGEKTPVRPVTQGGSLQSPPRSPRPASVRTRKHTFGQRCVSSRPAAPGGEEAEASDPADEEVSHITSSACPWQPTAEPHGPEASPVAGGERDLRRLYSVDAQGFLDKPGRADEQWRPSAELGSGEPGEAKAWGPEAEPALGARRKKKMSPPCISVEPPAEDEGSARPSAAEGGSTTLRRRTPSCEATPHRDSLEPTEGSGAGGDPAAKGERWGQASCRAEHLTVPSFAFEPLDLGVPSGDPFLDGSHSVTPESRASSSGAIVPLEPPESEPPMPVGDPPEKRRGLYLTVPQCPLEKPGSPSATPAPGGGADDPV
- testDescription: T-type channel blocking, FLIPR data (Table 6)
- Assay type: cell-based
- experimentalContext: CAv3.2, closed state, read-out: CAv3.2 IC50 Closed

- structureAsSmiles: "O=C(NC[C@H]1C[C@H](S(=O)(=O)c2cccc(C(F)(F)F)c2)C1)c1ccc(C(F)(F)F)nc1"
  resultValue: "≥ 10 µM"
- structureAsSmiles: "CC(C)([C@H]1C[C@@H](NC(=O)c2ccc(C(F)(F)F)cc2S(C)(=O)=O)C1)S(=O)(=O)c1cc(F)cc(C(F)(F)F)c1"
  resultValue: "≥ 10 µM"

Could you tell me which IC50 is on file for CC(C)([C@H]1C[C@H](NC(=O)c2ccc(C(F)(F)F)cc2S(C)(=O)=O)C1)S(=O)(=O)c1cc(F)cc(C(F)(F)F)c1 ?
≥ 10 µM

* * *

- targetSystem: Human Cav 2.2 channels (Homo sapiens, UniProt Q00975)
- testDescription: Fluorescent assay for CaV2.2 channels using potassium depolarization (VIPR/FLIPR)
- Format: cell-based
- experimentalContext: FLIPR data; closed state; read-out: CAv2.2 IC50 Closed
pIC50: −log10 of the molar value.
outcomeMeasure: pIC50

Study these solved cases before continuing.
- molecule: "CC(C)([C@H]1C[C@@H](C(=O)Nc2ccc(C(F)(F)F)cc2)C1)S(=O)(=O)c1cccc(C(F)(F)F)c1"
  pIC50: 5.41
- molecule: "CC(C)([C@H]1C[C@H](NS(=O)(=O)c2ccc(F)c(Cl)c2)C1)S(=O)(=O)c1cc(F)cc(C(F)(F)F)c1"
  pIC50: 5.60
- molecule: "CC(C)([C@H]1C[C@H](NS(=O)(=O)c2ccc(C(F)(F)F)cc2)C1)S(=O)(=O)c1cccc(C(F)(F)F)c1"
  pIC50: 5.04

1: O=C(NC[C@H]1C[C@H](S(=O)(=O)c2cc(F)cc(C(F)(F)F)c2)C1)c1ccc(C(F)(F)F)cc1
2: O=C(NC[C@H]1C[C@H](S(=O)(=O)c2cccc(OC(F)(F)F)c2)C1)c1ccnc(C(F)(F)F)n1
3: CC(C)(C[C@H]1C[C@@H](NC(=O)c2ccc(C(F)(F)F)cn2)C1)S(=O)(=O)c1cccc(C(F)(F)F)c1
Arrange the 3 molecules by rising pIC50, starting with the smallest. Order the labels as requested and list them.
1, 2, 3
(1: 5.19, 2: 5.42, 3: 6.16)

P: O=C(NC[C@H]1C[C@H](S(=O)(=O)c2cccc(Cl)c2)C1)c1ccc(C(F)(F)F)cn1
Q: CC(C)(C1CC(CNC(=O)c2cnc(C(F)(F)F)nc2)C1)S(=O)(=O)c1cccc(C(F)(F)F)c1 (centres unmarked)
Compare the recorded pIC50 of P and Q ; state which is larger. Answer by stating the label of the chosen item.
Q
(Q: 5.32, P: 5.00)

I: CNC1(CC(=O)N[C@H]2C[C@H](C(C)(C)S(=O)(=O)c3cc(F)cc(C(F)(F)F)c3)C2)CCCCC1
II: CC(C)(C1CC(CNC(=O)c2cc(C(F)(F)F)n[nH]2)C1)S(=O)(=O)c1cccc(C(F)(F)F)c1 (centres unmarked) [Compound 614]
Compare the recorded pIC50 of I and II ; state which is larger. Answer by stating the label of the chosen item.
II
(II: 5.54, I: 5.01)
